The reported measurements were obtained from patent US12421254B2.

# Test system: phospho-ERK in SW620 (KRAS-G12V) cells
# assay-remarks: pERK In Cell Western (ICW) assay (Method B), SW620
# Type: cell-based
# condition-description: Homo sapiens, SW-620, 3 h, Table 4
pIC50: −log10 of the molar value.
experimental-endpoint: pIC50

1. N#Cc1c(N)sc2c1C1(CN(c3nc(OC[C@@]45CCCN4C[C@H](F)C5)nc(Oc4ccnnc4)n3)C1)SC2 :: 4.70 to 6.00
2. C[C@@]1(CO)C[C@@H](O)CN1c1nc(OC[C@@]23CCCN2C[C@H](F)C3)nc(N2CC3(CCc4sc(N)c(C#N)c43)C2)n1 :: ≤ 4.70
3. C[C@H](c1cccnc1N)N(c1nc(OC[C@@]23CCCN2C[C@H](F)C3)nc(N2CC3(C2)SCc2sc(N)c(C#N)c23)n1)C1CC1 :: > 8.00
4. CC(c1cn(C)nc1N)N(C)c1nc(OC[C@@]23CCCN2C[C@H](F)C3)nc(N2CC3(CCc4sc(N)c(C#N)c43)C2)n1 (stereo partly shown) :: 4.70 to 6.00
5. N#Cc1c(N)sc2c1C1(CC2)CN(c2nc(NCc3ccn[nH]3)nc(OC[C@@]34CCCN3C[C@H](F)C4)n2)C1 :: ≤ 4.70
6. CCN(c1nc(OC[C@@]23CCCN2C[C@H](F)C3)nc(N2CC3(C2)SCc2sc(N)c(C#N)c23)n1)C(C)c1nonc1N (stereo partly shown) :: > 8.00
7. CCN(c1nc(OCC23CCCN2CCN(C)C3)nc(N2CC3(C2)SCc2sc(N)c(C#N)c23)n1)[C@H](C)c1cccnc1N (stereo partly shown) :: 7.00 to 8.00
8. CC(c1ccc(F)nc1N)N(C)c1nc(OC[C@@]23CCCN2C[C@H](F)C3)nc(N2CC3(CCc4sc(N)c(C#N)c43)C2)n1 (stereo partly shown) :: 7.00 to 8.00
9. CN(Cc1c(F)ccnc1N)c1nc(OC[C@@]23CCCN2C[C@H](F)C3)nc(N2CC3(C2)SCc2sc(N)c(C#N)c23)n1 :: 7.00 to 8.00
10. CC(c1cccnc1N)N(CCO)c1nc(OC[C@@]23CCCN2C[C@H](F)C3)nc(N2CC3(CCc4sc(N)c(C#N)c43)C2)n1 (single isomer, unassigned) [Compound 122A] :: 7.00 to 8.00
11. N#Cc1c(N)sc2c1C1(CC2)CN(c2nc(OC[C@@]34CCCN3C[C@H](F)C4)nc(N3CCCC(O)(C(F)F)C3)n2)C1 (stereo partly shown) :: 4.70 to 6.00
12. CCN(c1nc(OCC2CCC3C(=O)N(C)CCN23)nc(N2CC3(C2)SCc2sc(N)c(C#N)c23)n1)C(C)c1cccnc1N (mixture of isomers) :: 7.00 to 8.00
13. CC(c1nccnc1N)N(C)c1nc(OC[C@@]23CCCN2C[C@H](F)C3)nc(N2CC3(C2)SCc2sc(N)c(C#N)c23)n1 (stereo partly shown) :: > 8.00
14. C[C@@]1(O)CCCN(c2nc(OCC3(CN4CCOCC4)CC3)nc(N3CC4(C3)SCc3sc(N)c(C#N)c34)n2)C1 :: 7.00 to 8.00
15. C[C@@]1(O)CCCN(c2nc(OC[C@@]34CCCN3C[C@H](F)C4)nc(N3CC4(C3)SCc3sc(N)c(C#N)c34)n2)C1 :: 6.00 to 7.00
16. CCN(c1nc(OCC(C)N(C)C)nc(N2CC3(C2)SCc2sc(N)c(C#N)c23)n1)[C@H](C)c1cccnc1N (stereo partly shown) :: 6.00 to 7.00
17. CCN(CC1(C#N)CC1)c1nc(OC[C@@]23CCCN2C[C@H](F)C3)nc(N2CC3(C2)SCc2sc(N)c(C#N)c23)n1 :: 6.00 to 7.00
18. CCN(c1nc(OCC23CCCN2CCC3)nc(N2CC3(C2)SCc2sc(N)c(C#N)c23)n1)[C@H](C)c1cccnc1N :: 7.00 to 8.00
19. C[C@H](c1cccnc1N)N(CCC#N)c1nc(OCC2(CN3CCOCC3)CC2)nc(N2CC3(C2)SCc2sc(N)c(C#N)c23)n1 :: > 8.00
20. N#Cc1c(N)sc2c1C1(CC2)CN(c2nc(OC[C@@]34CCCN3C[C@H](F)C4)nc(N(CCO)Cc3cn[nH]c3)n2)C1 :: 4.70 to 6.00
21. CCN(c1nc(OC[C@@H]2C[C@@H](F)CN2)nc(N2CC3(C2)SCc2sc(N)c(C#N)c23)n1)[C@H](C)c1cccnc1N :: 7.00 to 8.00
22. N#Cc1c(N)sc2c1C1(CN(c3nc(OC[C@@]45CCCN4C[C@H](F)C5)nc(N4CCOCC(C#N)C4)n3)C1)SC2 (stereo partly shown) :: 6.00 to 7.00
23. CC(c1nsnc1N)N(C)c1nc(OC[C@@]23CCCN2C[C@H](F)C3)nc(N2CC3(CCc4sc(N)c(C#N)c43)C2)n1 (stereo partly shown) :: 7.00 to 8.00
24. CC1(C#N)CCCCN(c2nc(OC[C@@]34CCCN3C[C@H](F)C4)nc(N3CC4(CCc5sc(N)c(C#N)c54)C3)n2)C1 (stereo partly shown) :: 6.00 to 7.00
25. CC(c1ccns1)N(C)c1nc(OC[C@@]23CCCN2C[C@H](F)C3)nc(N2CC3(CCc4sc(N)c(C#N)c43)C2)n1 (stereo partly shown) :: 6.00 to 7.00
